# Test system: Escherichia coli K-12 BW25113
# ASSAY OVERVIEW: relative growth (OD600 normalised to plate interquartile mean) (fraction); higher = less growth inhibition, active = 0.2 or less
# CONDITIONS: 50 µM; LB; incubation time: overnight (16-24 h)
Among all 39,000 compounds or so, about 220 (0.56%) showed activity. This is one part of a sample in which actives are shown more often than they occur.
ASSAY ENDPOINT: relative growth

Sample records with relative growth:
>  <STRUCTURE NOTATION>
NC(=O)c1cc(S(N)(=O)=O)ccc1Cl

>  <relative growth>
0.993 (inactive)

$$$$
>  <STRUCTURE NOTATION>
C[C@H](CO)N1C[C@H](C)[C@H](CN(C)C(=O)Nc2ccc3c(c2)OCO3)OCCCC[C@H](C)Oc2ccc(NC(=O)Cc3ccccc3)cc2C1=O

>  <relative growth>
0.991 (inactive)

$$$$
>  <STRUCTURE NOTATION>
CCOC(=O)/C(=N/O)c1csc(N)n1

>  <relative growth>
0.997 (inactive)

$$$$

Continue with the next compound.
Challenge: Tell me its relative growth on Escherichia coli K-12 BW25113: C[C@@H]1CCCCO[C@H](CN(C)C)[C@H](C)CN([C@@H](C)CO)C(=O)c2cc(NS(=O)(=O)c3cn(C)cn3)ccc2O1
Response given: 0.994 (inactive)

###

Reported relative growth values follow for various compounds
# System: Escherichia coli K-12 BW25113;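 also: Wild-type cells incubated without shaking, value is the mean of two biological replicates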
# ASSAY OVERVIEW: relative growth (OD600 normalised to plate interquartile mean) (fraction); higher = less growth inhibition, active = 0.2 or less
# CONDITIONS: 50 µM; LB; incubation time: overnight (16-24 h)
In all, about 39,000 compounds went through this assay and about 220 (0.56%) showed activity. The sample as a whole holds a higher share of actives than the screen did.
Respond numerically, and do not add a unit to the figure.

Sample records with relative growth:
>  <STRUCTURE NOTATION>
CC(C)NC(=O)Nc1ccc2c(c1)C(=O)N([C@H](C)CO)C[C@@H](C)[C@H](CN(C)Cc1ccc(C(F)(F)F)cc1)OCCCC[C@@H](C)O2

>  <ASSAY ENDPOINT>
relative growth

>  <RESULT NUMBER>
1.02

$$$$
>  <STRUCTURE NOTATION>
C[C@@H]1CN([C@H](C)CO)C(=O)c2ccccc2-c2ccccc2CO[C@@H]1CN(C)C(=O)Nc1cccc(F)c1

>  <ASSAY ENDPOINT>
relative growth

>  <RESULT NUMBER>
1.01

$$$$
>  <STRUCTURE NOTATION>
Cc1noc(C)c1S(=O)(=O)N(C)C[C@@H]1Oc2ccc(NS(C)(=O)=O)cc2CC(=O)N([C@@H](C)CO)C[C@H]1C

>  <ASSAY ENDPOINT>
relative growth

>  <RESULT NUMBER>
1.01

$$$$
>  <STRUCTURE NOTATION>
COc1ccc(-c2cnc3c(c2)C(=O)N([C@H](C)CO)C[C@H](C)[C@@H](CN(C)S(=O)(=O)c2ccc(OC)cc2)O3)cc1

>  <ASSAY ENDPOINT>
relative growth

>  <RESULT NUMBER>
1

$$$$
>  <STRUCTURE NOTATION>
C[C@H](O)CC1=C[C@H](O)[C@@H](C)OC1=O

>  <ASSAY ENDPOINT>
relative growth

>  <RESULT NUMBER>
1.01

$$$$
>  <STRUCTURE NOTATION>
O=C1NCCN1c1cccnc1

>  <ASSAY ENDPOINT>
relative growth

>  <RESULT NUMBER>
1.01

$$$$
>  <STRUCTURE NOTATION>
C[C@H](CO)N1C[C@H](C)[C@@H](CN(C)C(=O)c2cnccn2)Oc2cc(Br)ccc2S1(=O)=O

>  <ASSAY ENDPOINT>
relative growth

>  <RESULT NUMBER>
0.986

$$$$
>  <STRUCTURE NOTATION>
C[C@H](CO)N1C[C@H](C)[C@@H](CN(C)S(C)(=O)=O)Oc2c(NC(=O)Nc3ccc4c(c3)OCO4)cccc2C1=O

>  <ASSAY ENDPOINT>
relative growth

>  <RESULT NUMBER>
0.991

$$$$
>  <STRUCTURE NOTATION>
COc1ccc(S(=O)(=O)Nc2cccc3c2O[C@H](CN(C)S(=O)(=O)c2cn(C)cn2)[C@@H](C)CN([C@H](C)CO)C3=O)cc1

>  <ASSAY ENDPOINT>
relative growth

>  <RESULT NUMBER>
1.01

$$$$
>  <STRUCTURE NOTATION>
C[C@@H]1CCCCO[C@@H](CN(C)S(=O)(=O)c2cccs2)[C@@H](C)CN([C@H](C)CO)C(=O)c2cc(NC(=O)Nc3ccccc3)ccc2O1

>  <ASSAY ENDPOINT>
relative growth

>  <RESULT NUMBER>
1.02

$$$$

Challenge: Supply recorded relative growth for C[C@H](CO)N1C[C@H](C)[C@@H](CN(C)C(=O)NC2CCCCC2)Oc2c(NC(=O)Nc3cccc4ccccc34)cccc2C1=O here.
Response given: 0.995

Challenge: Supply recorded relative growth for C[C@H](CO)N1C[C@H](C)[C@@H](CN(C)C(=O)Nc2ccc(F)cc2)OCc2ccccc2-c2ccccc2C1=O here.
Response given: 0.975

Challenge: Supply recorded relative growth for C[C@@H]1CN([C@@H](C)CO)C(=O)c2cc(NS(=O)(=O)c3cn(C)cn3)ccc2O[C@@H]1CN(C)Cc1ccncc1 here.
Response given: 0.994

Challenge: Supply recorded relative growth for C[C@@H]1CN([C@H](C)CO)C(=O)Cc2cc(NC(=O)Nc3ccc4c(c3)OCO4)ccc2O[C@@H]1CN(C)Cc1ccc(C(F)(F)F)cc1 here.
Response given: 1.02

This collection of values is drawn from the supplement of paper PMC9446081.
